tested on: SNB-75 CNS; assay: NCI-60 one-dose screen, 48 h (100 = growth as untreated, 0 = no growth, -100 = all killed); conditions: 10 µM unless noted
Compounds without any hit were thinned out: in the full panel of roughly 83,000, 20% have a hit.
Readout kind: growth (%)

1) S=C(Cc1ccc2c(c1)CCCC2)N1CCOCC1 = 95.1
2) CC1O[C@@H](OC2[C@H](OC(=O)/C=C/c3ccc(O)c(O)c3)C(COC3O[C@H](C)C(O)C(O)[C@@H]3O)O[C@@H](OCCc3ccc(O)c(O)c3)[C@H]2O)[C@@H](O)C(O)[C@H]1O (some centres not stated) = 85.7
3) COc1cc(C2CC(c3cc(OC)c(OCCCOc4ccc(-n5c(/C=C/c6ccccc6)nc6ccccc6c5=O)cc4)c(OC)c3)=NO2)cc(OC)c1OC (configuration not stated) = 86.9
4) Cn1c(I)c(C#C[Si](C)(C)C)c(=O)n(C(=O)c2ccccc2)c1=O = 52.2
5) Cc1ccc(S(=O)(=O)Oc2cc(OS(=O)(=O)c3ccc(C)cc3)cc(OS(=O)(=O)c3ccc(C)cc3)c2)cc1 = 95.4
6) COc1ccc(S(=O)(=O)NCCNc2nccc(-c3c(-c4cccc(F)c4)nc4sccn34)n2)cc1 = -0.29
7) N#Cc1c(-c2ccccn2)[nH]c(=S)[nH]c1=O = 105
8) CCCCCCCCn1ccc2cc(NC(=O)Cn3cc(CN4CCCC4)nn3)ccc21 = 96.6
9) C[C@@]1(CCC#N)[C@H]2CC[C@@H]3[C@H]4[C@H](C(=O)/C=C/c5cccnc5)CC[C@]4(C#N)CC[C@@]3(C)[C@]2(C)CC[C@H]1C(=O)/C=C/c1cccnc1 = 72.7
10) O=C(N/N=C/c1ccncc1)c1ccc(C(F)(F)F)nc1Nc1cccc(C(F)(F)F)c1 = 46.7
11) C[C@H]1[C@H]2[C@H]3CC[C@@H]4[C@@]5(C)C/C(=C/c6cccnc6)C(=O)C(C)(C)[C@@H]5CC[C@@]4(C)[C@]3(C)CC[C@]23CO[C@]1(C)[C@@H](C(=O)/C=C\c1cccnc1)C3 = 32.7
12) Cn1ccc2c(c1=O)C(=O)c1nccc3c1c-2nc1ccccc13 = 60.2
13) Cc1cc(N2CCCC2)nc(NCc2cc(Nc3ccnc4cc(Cl)ccc34)ccc2F)n1 = -90.7
14) O=C(CSc1nccc(Nc2ccc(S(=O)(=O)Nc3nccs3)cc2)n1)c1ccc(F)cc1 = 94
15) O=C(NCCCNc1cc(-c2cn(-c3ccccc3)nc2-c2cccc(O)c2)ccn1)c1cccc(O)c1 = 59.8
16) CC1(C)CC(=O)CC2(C1)N=C(N)Nc1nc3ccccc3n12 (configuration not stated) = 82.3
17) COc1cc(/C=C/C(=O)c2ccc(Nc3nc(Nc4ccc(F)cc4)nc(Nc4ccc(Cl)cc4)n3)cc2)cc(OC)c1OC = 0.259
